Reference source: PubChem BioAssay (NCI)

Test system: DU-145 prostate
protocolDetails: NCI-60 one-dose screen, 48 h
experimentalContext: 10 µM unless noted
The panel holds about 83,000 compounds, 20% with a hit somewhere; the sample as a whole holds those more often. Activity calls are given as the source filed them. The calls were made as follows: active = growth percent below 10; inactive = the rest.
Outcomes: active, inactive

{"columns": ["compound", "groupLabel"],
 "data": [
  ["c1ccc2cc(C[n+]3ccn(CCCCCCCCCCn4cc[n+](Cc5ccc6ccccc6c5)c4)c3)ccc2c1", "inactive"],
  ["c1cnc2c(-c3nc4ccc5[nH]ncc5c4c4c3CCCC4)c[nH]c2c1", "inactive"],
  ["NC(=O)c1ccc(-c2c3ccccc3cc3c2ccc2ccccc23)cc1", "inactive"],
  ["Nc1cc(C(=O)NC[C@H]2CN(c3ccc(N4CCC(C(=O)O)CC4)cc3)C(=O)O2)ccc1Cl", "inactive"],
  ["CN(C)c1ccc(-c2c(C#N)c(N)nn2C(=O)c2ccc(NC(=O)c3ccccn3)cc2)cc1", "inactive"],
  ["C=CC[Se]C(=O)Cc1c(C)n(C(=O)c2ccc(Cl)cc2)c2ccc(OC)cc12", "active"],
  ["CC(=O)Oc1ccc(/C(=C(\\C)c2ccc(Cl)cc2)c2ccc(OCCN3CCCCC3)cc2)cc1", "inactive"],
  ["CCc1ncnc2c1ccn2C(C)c1ccc(OC)c(F)c1 (stereo not given)", "inactive"],
  ["CCOC(=O)[C@@H]1CSC(CC)=C(C(=O)O)N1", "inactive"],
  ["CCC(=O)Oc1ccc(-c2ccccc2)cc1Br", "inactive"]
]}
